Recorded phosphorylation enrichment, one value per entry.
- tested target: Fes (UniProt P07332)
- Sequence (P07332 whole entry, looked up): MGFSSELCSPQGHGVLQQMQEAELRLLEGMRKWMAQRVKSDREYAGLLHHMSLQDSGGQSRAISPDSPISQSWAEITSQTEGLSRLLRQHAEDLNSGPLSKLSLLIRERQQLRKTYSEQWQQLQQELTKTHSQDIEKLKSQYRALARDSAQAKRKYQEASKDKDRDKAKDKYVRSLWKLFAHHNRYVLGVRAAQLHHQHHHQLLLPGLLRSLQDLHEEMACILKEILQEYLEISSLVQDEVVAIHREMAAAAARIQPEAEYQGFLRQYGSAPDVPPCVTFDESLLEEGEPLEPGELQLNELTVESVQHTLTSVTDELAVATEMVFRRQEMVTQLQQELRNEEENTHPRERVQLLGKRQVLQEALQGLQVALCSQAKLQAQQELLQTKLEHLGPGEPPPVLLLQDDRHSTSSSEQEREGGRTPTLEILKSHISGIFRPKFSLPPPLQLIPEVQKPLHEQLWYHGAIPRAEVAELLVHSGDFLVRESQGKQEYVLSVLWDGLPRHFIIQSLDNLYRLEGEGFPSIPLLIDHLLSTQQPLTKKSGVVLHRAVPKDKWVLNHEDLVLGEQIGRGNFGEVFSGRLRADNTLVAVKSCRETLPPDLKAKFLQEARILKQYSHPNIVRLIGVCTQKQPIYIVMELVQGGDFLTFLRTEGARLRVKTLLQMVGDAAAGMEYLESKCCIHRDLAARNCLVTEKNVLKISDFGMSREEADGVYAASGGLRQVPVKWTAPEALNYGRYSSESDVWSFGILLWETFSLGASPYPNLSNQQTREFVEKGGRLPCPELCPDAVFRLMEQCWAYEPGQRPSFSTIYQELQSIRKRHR
- assay info: phosphorylation enrichment, bacterial display (enrichment ratio); higher = better substrate or ligand; peptides without Tyr show the background;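 also: 11-residue human phosphosite peptides and single-mutation variants displayed on the E. coli surface, counted by deep sequencing, each peptide's frequency after selection divided by its frequency in the unselected input library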;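 also: frequency after pTyr selection over input frequency; kinase dosed for 20-30% of maximal phosphorylation in three min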
Please reply with the number alone, leaving off any unit.

Check out these entries, answers already filled in.
QCTSAYLLQPE [NANS_Y188_P189L] = 1.49
RSDSSYRMSAT [NHS_Y1532] = 0.757

Please find the next sequence below.
Name the recorded phosphorylation enrichment for TISPYYRQSLF [CRYAA_Y48] . 0.787

###

- System: Fer (mouse)
- assay info: phosphorylation enrichment, bacterial display (enrichment ratio); higher = better substrate or ligand; peptides without Tyr show the background
Recorded phosphorylation enrichment, one value per entry.
Please reply with the number alone, leaving off any unit.

YKIYLYTLNDN [FN1_Y1975] = 0.671
ADEDIYGVLPA [LYNtide_2014] = 2.99
EPSLDYMVTKI [CPS1_Y768] = 0.78

Name the recorded phosphorylation enrichment for CNPRRYPVLMS [OR2T1_Y182_L180R] . 0.358

What do you get for TINPIHEHVGY [CHN1_Y143_Y143H] ? 0.757

What do you get for HAVYVCDICHV [TWNK_Y508_Y508C] ? 0.775

What do you get for FFVVRYCWLRR [MPZ_Y181_YF] ? 0.493

What do you get for MHLRQYKLLGG [GNAS_Y391_E392K] ? 0.399

What do you get for NSNAAYEQSHF [LRIF1_Y714] ? 0.417

What do you get for LSSETYVKSYT [F5_Y2149_M2148T] ? 0.738

What do you get for FVGGFYGGCNE [CTSC_Y352_YF] ? 0.941

What do you get for RSDSSYRMSAT [NHS_Y1532] ? 0.541

What do you get for TTKAKYKTPIF [PLD2_Y573_T577I_YF] ? 0.487

What do you get for RIDRKYKKVRF [F8_Y442_G439D] ? 0.934
